study target: GLS1 (purified recombinant human GAC) (Homo sapiens, UniProt O94925)
Sequence (O94925 55-598 isoform O94925-3 limits assumed): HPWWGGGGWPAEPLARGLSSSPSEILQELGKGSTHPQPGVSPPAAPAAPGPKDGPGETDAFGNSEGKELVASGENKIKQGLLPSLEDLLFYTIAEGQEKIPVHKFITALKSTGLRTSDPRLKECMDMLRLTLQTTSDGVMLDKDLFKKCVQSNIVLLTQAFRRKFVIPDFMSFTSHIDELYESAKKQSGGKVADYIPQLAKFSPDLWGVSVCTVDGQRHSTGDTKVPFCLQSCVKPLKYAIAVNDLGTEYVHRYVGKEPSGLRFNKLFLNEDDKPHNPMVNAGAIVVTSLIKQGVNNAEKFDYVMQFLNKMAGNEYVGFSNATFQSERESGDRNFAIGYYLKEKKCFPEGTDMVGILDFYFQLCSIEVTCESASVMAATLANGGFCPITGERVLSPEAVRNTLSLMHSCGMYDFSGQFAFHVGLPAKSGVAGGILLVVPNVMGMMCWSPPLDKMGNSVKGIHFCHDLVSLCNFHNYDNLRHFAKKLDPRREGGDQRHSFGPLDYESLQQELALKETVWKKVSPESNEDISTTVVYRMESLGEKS
assay protocol: GLS1 enzymatic activity assay (dual-coupled, Amplex UltraRed/resorufin)
result type: IC50

Query: Item under review: CCOC(=O)C(=O)Nc1ccn(CCC(F)Cn2cc(C(=O)NCc3cccc(OC(F)(F)F)c3)nn2)c(=O)c1F (stereo not shown) . Reported IC50?
Result: 100 to 500 nM

Query: Item under review: O=C(Cc1cccc(OC(F)(F)F)c1)Nc1ccc(CCCCn2ccc(NC(=O)OC3CCCCC3)nc2=O)nn1 . Reported IC50?
Result: < 100 nM

Query: Item under review: Cc1ccc(CNC(=O)c2nnc(CCCCn3ccc(NC(=O)OC4CCC4)c(F)c3=O)s2)cn1 . Reported IC50?
Result: 100 to 500 nM

Query: Item under review: O=C(Cc1ccccc1)Nc1nnc(CCCCn2ccc(NC(=O)[C@@H](O)c3ccccc3)nc2=O)s1 . Reported IC50?
Result: < 100 nM

Query: Item under review: O=C(Cc1ccccc1)Nc1ccn(CCC(F)Cn2cc(C(=O)NCc3cc(C(F)(F)F)ccn3)nn2)c(=O)c1 (stereo not shown) . Reported IC50?
Result: < 100 nM

Query: Item under review: CC(C)CNC(=O)c1cn(CCCCn2ccc(NC(=O)Cc3ccccc3)cc2=O)nn1 . Reported IC50?
Result: 500 to 5000 nM

Query: Item under review: O=C(Cc1cccc(OC(F)(F)F)c1)Nc1ccn(CCCCn2cc(C(=O)NCc3cccc(F)c3)nn2)c(=O)c1 . Reported IC50?
Result: < 100 nM

---

study target: GLS1 (purified recombinant human GAC) (Homo sapiens, UniProt O94925)
Sequence (O94925 55-598 isoform O94925-3 limits assumed): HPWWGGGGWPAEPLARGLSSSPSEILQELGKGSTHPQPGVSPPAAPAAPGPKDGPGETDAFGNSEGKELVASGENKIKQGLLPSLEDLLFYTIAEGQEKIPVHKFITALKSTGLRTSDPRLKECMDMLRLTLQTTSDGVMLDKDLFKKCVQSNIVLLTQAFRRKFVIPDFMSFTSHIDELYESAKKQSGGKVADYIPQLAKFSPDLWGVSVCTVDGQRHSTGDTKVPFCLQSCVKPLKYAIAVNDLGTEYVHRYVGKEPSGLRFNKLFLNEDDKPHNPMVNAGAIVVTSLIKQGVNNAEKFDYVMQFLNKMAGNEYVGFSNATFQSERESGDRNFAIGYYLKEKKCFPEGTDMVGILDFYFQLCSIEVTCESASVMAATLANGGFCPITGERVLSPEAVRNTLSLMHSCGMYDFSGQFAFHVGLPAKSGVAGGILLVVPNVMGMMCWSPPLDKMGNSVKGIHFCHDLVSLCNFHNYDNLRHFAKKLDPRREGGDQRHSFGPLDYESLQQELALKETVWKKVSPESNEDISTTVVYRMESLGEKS
assay protocol: GLS1 enzymatic activity assay (dual-coupled, Amplex UltraRed/resorufin)
result type: IC50

Query: Item under review: Cn1ccnc1CC(=O)Nc1ccn(CCC(F)Cn2cc(C(=O)NCc3cccc(OC(F)(F)F)c3)nn2)c(=O)c1 (stereo not shown) . Reported IC50?
Result: 100 to 500 nM

Query: Item under review: CO[C@H](C(=O)Nc1ccn(CCC(F)Cn2cc(C(=O)NCc3ccc(C)nc3)nn2)c(=O)c1F)c1ccccc1 (stereo partly shown) . Reported IC50?
Result: < 100 nM

Query: Item under review: O=C(Cn1ccccc1=O)Nc1ccn(CCCCn2cc(C(=O)NCc3cccc(C(F)(F)F)c3)nn2)c(=O)c1 . Reported IC50?
Result: 500 to 5000 nM

Query: Item under review: O=C(Cc1ccccc1)Nc1ccn(CCCCn2cc(C(=O)NCc3ncccc3F)nn2)c(=O)c1 . Reported IC50?
Result: 100 to 500 nM

Query: Item under review: O=C(CN1CCCC(F)(F)C1)Nc1ccn(CCC(F)Cn2cc(C(=O)NCc3cccc(OC(F)(F)F)c3)nn2)c(=O)c1 (stereo not shown) . Reported IC50?
Result: < 100 nM

Query: Item under review: O=C(Cc1cccc(OC(F)(F)F)c1)Nc1ccn(CCCCn2cc(C(=O)NCc3cccc(OC(F)(F)F)c3)nn2)c(=O)c1 . Reported IC50?
Result: < 100 nM

Query: Item under review: O=C(NCc1cccc(OC(F)(F)F)c1)c1cn(CC(F)CCn2ccc(COc3ccccc3)cc2=O)nn1 (stereo not shown) . Reported IC50?
Result: < 100 nM

Query: Item under review: O=C(CC1CCCCC1)Nc1ccn(CCCCc2nnc(C(=O)NCc3ncccc3F)s2)c(=O)c1 . Reported IC50?
Result: < 100 nM

Query: Item under review: O=C(Cc1ccccc1)Nc1ccn(CC(F)CCn2cc(C(=O)NCc3cccc(OC(F)(F)F)c3)nn2)c(=O)c1 (stereo not shown) . Reported IC50?
Result: < 100 nM

Query: Item under review: CC(C)(C)OC(=O)NCc1cccc(CC(=O)Nc2ccn(CCC(F)Cn3cc(C(=O)NCc4cccc(OC(F)(F)F)c4)nn3)c(=O)c2)c1 (stereo not shown) . Reported IC50?
Result: < 100 nM

Query: Item under review: O=C(Nc1ccn(CCC(F)Cn2cc(C(=O)NCc3cccc(OC(F)(F)F)c3)nn2)c(=O)n1)OCc1ccccc1 (stereo not shown) . Reported IC50?
Result: < 100 nM

Query: Item under review: Cc1ccc(CC(=O)Nc2ccn(CCC(F)Cn3cc(C(=O)NCc4cccc(OC(F)(F)F)c4)nn3)c(=O)c2)cn1 (stereo not shown) . Reported IC50?
Result: < 100 nM

Query: Item under review: N#CC1CCCN(C(=O)C(=O)Nc2ccn(CCC(F)Cn3cc(C(=O)NCc4cccc(OC(F)(F)F)c4)nn3)c(=O)c2F)C1 (stereo not shown) . Reported IC50?
Result: < 100 nM

Query: Item under review: O=C(CC1CCCCC1)Nc1ccn(CCCCn2cc(C(=O)NCc3ncccc3F)nn2)c(=O)c1 . Reported IC50?
Result: < 100 nM

Query: Item under review: O=C(Nc1ccn(CCC(F)Cn2cc(C(=O)NCc3cccc(OC(F)(F)F)c3)nn2)c(=O)n1)OCc1ccccc1F (stereo not shown) . Reported IC50?
Result: < 100 nM

Query: Item under review: O=C(CC1CCNCC1)Nc1ccn(CCC(F)Cn2cc(C(=O)NCc3cccc(OC(F)(F)F)c3)nn2)c(=O)c1F (stereo not shown) . Reported IC50?
Result: 100 to 500 nM

Query: Item under review: COCCNC(=O)c1nnc(CCCCn2ccc(NC(=O)OCc3ccccc3)nc2=O)s1 . Reported IC50?
Result: 500 to 5000 nM

Query: Item under review: CNC(=O)Nc1nnc(CCCCn2ccc(NC(=O)CC3CCCC3)c(F)c2=O)s1 . Reported IC50?
Result: 100 to 500 nM

Query: Item under review: O=C(Cc1ccccn1)Nc1ccn(CCCCn2cc(C(=O)NCc3cccc(OC(F)(F)F)c3)nn2)c(=O)c1 . Reported IC50?
Result: < 100 nM

Query: Item under review: COCCCNc1ccn(CCCCc2ccc(NC(=O)Cc3ccccc3)nn2)c(=O)n1 . Reported IC50?
Result: 500 to 5000 nM

Query: Item under review: Cc1ccc(CNC(=O)c2cn(CC(F)CCn3ccc(NC(=O)OC4CCC4)nc3=O)nn2)cn1 (stereo not shown) . Reported IC50?
Result: 100 to 500 nM

Query: Item under review: O=C(NCc1cccc(OC(F)(F)F)c1)c1cn(CC(F)CCn2ccc(NC(=O)[C@@H](O)c3ccccc3)cc2=O)nn1 (stereo partly shown) . Reported IC50?
Result: < 100 nM

Query: Item under review: O=C(Nc1ccn(CCC(F)Cn2cc(C(=O)NCc3cc(C(F)(F)F)ccn3)nn2)c(=O)n1)OCc1cccc(OC(F)(F)F)c1 (stereo not shown) . Reported IC50?
Result: < 100 nM

Query: Item under review: O=C(Cc1ncc(Cl)cc1F)Nc1ccn(CCC(F)Cn2cc(C(=O)NCc3cccc(OC(F)(F)F)c3)nn2)c(=O)c1 (stereo not shown) . Reported IC50?
Result: < 100 nM

Query: Item under review: O=C(Cc1cccc(OC(F)(F)F)c1)Nc1ccn(CCCCn2cc(C(=O)NCc3ccccc3)nn2)c(=O)n1 . Reported IC50?
Result: 500 to 5000 nM

Query: Item under review: O=C(Cc1cccc(OC(F)(F)F)c1)Nc1ccn(CCCCn2cc(C(=O)NCc3ccccc3)nn2)c(=O)c1 . Reported IC50?
Result: < 100 nM

Query: Item under review: O=C(NCc1cccc(OC(F)(F)F)c1)c1ccn(CCCCn2cc(C(=O)NCc3cccc(OC(F)(F)F)c3)nn2)c(=O)c1 . Reported IC50?
Result: < 100 nM

Query: Item under review: Cc1ccc(CNC(=O)c2cn(CC(F)CCn3ccc(NC(=O)OC4CCC4)c(F)c3=O)nn2)cn1 (stereo not shown) . Reported IC50?
Result: 100 to 500 nM
